# Organism: Rattus norvegicus
# Assay Name: Open TG-GATES - Regimen: Daily Repeat
# Type: toxicity, organism-based, Sprague-Dawley
# Parameters: regimen Daily Repeat, gender Male, age 6 weeks
# Condition Label: in vivo, po, 0 mg/kg, 72 h, tissue Blood, route gavage, dose level Control, time 3 day
This section presents molecules with their documented Eos values.
Measurement Label: Eos (%)

>>> measured_value("O=C1CN(/N=C/c2ccc(-c3ccc([N+](=O)[O-])cc3)o2)C(O)=N1")
1
>>> measured_value("C=CCO")
1
>>> measured_value("COc1ccc(O)c(C(C)(C)C)c1.COc1ccc(O)cc1C(C)(C)C [BUTYLATED HYDROXYANISOLE]")
0.8
>>> measured_value("Cn1cnc([N+](=O)[O-])c1Sc1ncnc2nc[nH]c12")
0.8
>>> measured_value("Cc1cccc(Nc2cc(Cl)nc(SCC(=O)O)n2)c1C")
1.2
>>> measured_value("Cc1cnc(NC(=O)C2=C(O)c3ccccc3S(=O)(=O)N2C)s1")
1.2
>>> measured_value("O=C1NC(=O)C(c2ccccc2)(c2ccccc2)N1")
0.8

* * *

This section presents compounds with their documented IP values.
# Organism: Rattus norvegicus
# Assay Name: Open TG-GATES - Regimen: Single
# Assay type: toxicity, organism-based, Sprague-Dawley
# Design: regimen Single, gender Male, age 6 weeks
# Condition Label: in vivo, po, 0 mg/kg, 24 h, tissue Plasma, route gavage, dose level Control
Measurement Label: IP (mg/dL)

>>> measured_value("CS(=O)(=O)Nc1ccc([N+](=O)[O-])cc1Oc1ccccc1 [NIMESULIDE]")
7.8
>>> measured_value("Cn1cnc([N+](=O)[O-])c1Sc1ncnc2nc[nH]c12 [AZATHIOPRINE]")
7
>>> measured_value("O=C1CN(/N=C/c2ccc(-c3ccc([N+](=O)[O-])cc3)o2)C(O)=N1 [DANTROLENE]")
8

* * *

# Organism: Rattus norvegicus
# Assay Name: Open TG-GATES - Regimen: Daily Repeat
# Format: toxicity, organism-based, Sprague-Dawley
# Set-up: regimen Daily Repeat, gender Male, age 6 weeks
# Condition Label: in vivo, po, 0 mg/kg, […], tissue Blood, route gavage, dose level Control, time 28 day
Measurement Label: MCV (fL)

>>> measured_value("CS(=O)(=O)Nc1ccc([N+](=O)[O-])cc1Oc1ccccc1 [NIMESULIDE]")
58.6
>>> measured_value("O=C1NC(=O)C(c2ccccc2)(c2ccccc2)N1 [PHENYTOIN]")
58.7
>>> measured_value("Cn1cnc([N+](=O)[O-])c1Sc1ncnc2nc[nH]c12 [AZATHIOPRINE]")
57.1
>>> measured_value("O=P1(N(CCCl)CCCl)NCCCO1 (centres undefined) [CYCLOPHOSPHAMIDE ANHYDROUS]")
56.6

* * *

# Organism: Rattus norvegicus
# Assay Name: Open TG-GATES - Regimen: Daily Repeat
# Type: toxicity, organism-based, Sprague-Dawley
# Parameters: regimen Daily Repeat, gender Male, age 6 weeks
# Condition Label: in vivo, po, 0 mg/kg, […], tissue Plasma, route gavage, dose level Control, time 7 day
This section presents compounds with their documented DBIL values.
Measurement Label: DBIL (mg/dL)

>>> measured_value("CS(=O)(=O)Nc1ccc([N+](=O)[O-])cc1Oc1ccccc1 [NIMESULIDE]")
0.03
>>> measured_value("O=C1NC(=O)C(c2ccccc2)(c2ccccc2)N1 [PHENYTOIN]")
0.004
>>> measured_value("COc1ccc(O)c(C(C)(C)C)c1.COc1ccc(O)cc1C(C)(C)C [BUTYLATED HYDROXYANISOLE]")
0.02
>>> measured_value("Cc1cccc(Nc2cc(Cl)nc(SCC(=O)O)n2)c1C [PIRINIXIC ACID]")
0.02
